Data provenance: patent US20260297109A1

Assayed target: SAE (Homo sapiens)
Construct: endogenous in cells; host or cells: HCT116
Sequence (Q9UBT2 whole entry): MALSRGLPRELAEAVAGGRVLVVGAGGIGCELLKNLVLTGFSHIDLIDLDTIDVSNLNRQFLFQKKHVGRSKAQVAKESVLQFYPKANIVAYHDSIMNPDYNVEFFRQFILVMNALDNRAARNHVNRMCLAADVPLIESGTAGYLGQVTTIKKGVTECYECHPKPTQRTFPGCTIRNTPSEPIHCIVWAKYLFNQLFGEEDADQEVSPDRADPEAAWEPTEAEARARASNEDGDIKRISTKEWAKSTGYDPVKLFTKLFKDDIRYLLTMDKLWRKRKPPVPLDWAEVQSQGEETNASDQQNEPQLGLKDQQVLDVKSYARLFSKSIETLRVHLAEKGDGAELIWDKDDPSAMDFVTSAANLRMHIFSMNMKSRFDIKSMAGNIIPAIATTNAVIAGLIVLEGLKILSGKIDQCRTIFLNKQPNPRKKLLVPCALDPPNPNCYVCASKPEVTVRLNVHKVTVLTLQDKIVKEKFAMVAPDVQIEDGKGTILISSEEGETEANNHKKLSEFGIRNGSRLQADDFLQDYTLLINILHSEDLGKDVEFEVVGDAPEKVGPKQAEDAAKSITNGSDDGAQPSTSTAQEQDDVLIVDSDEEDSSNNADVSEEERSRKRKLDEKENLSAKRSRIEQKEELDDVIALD
Sequence (Q9UBE0 whole entry, further chain): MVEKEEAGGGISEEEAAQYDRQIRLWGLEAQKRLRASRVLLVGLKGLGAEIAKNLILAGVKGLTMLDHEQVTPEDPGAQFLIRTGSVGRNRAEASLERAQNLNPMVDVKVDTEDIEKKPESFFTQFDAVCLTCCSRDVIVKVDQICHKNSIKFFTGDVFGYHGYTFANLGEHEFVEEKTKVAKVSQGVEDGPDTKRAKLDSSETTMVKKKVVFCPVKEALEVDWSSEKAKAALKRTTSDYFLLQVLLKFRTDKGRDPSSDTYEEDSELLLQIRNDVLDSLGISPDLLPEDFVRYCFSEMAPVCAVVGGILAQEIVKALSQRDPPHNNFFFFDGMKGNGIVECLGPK
Assay procedure: SUMO IF: in vitro inhibitory activity assay against SAE in HCT116 cells (SUMO-2/3 immunofluorescence)
Assay type: cell-based
Measurement conditions: class symbols, 6 h at 37° C.
pIC50: −log10 of the molar value.
Recorded metric: pIC50

NS(=O)(=O)OC[C@H]1[C@H](F)[C@@H](Nc2ncncc2C(=O)c2cc3c(s2)CSC[C@]32NCCc3ccccc32)C[C@@H]1O [Compound 296] = 6.70 to 7.30

Parameters: items (list). Returns: pIC50 for each item.
1. NS(=O)(=O)OC[C@H]1[C@H](F)[C@@H](Nc2ncncc2C(=O)c2cc3c(s2)C=C[C@]32OCCc3ccc(Cl)cc32)C[C@@H]1O [Compound 761]
2. NS(=O)(=O)OC[C@H]1[C@H](F)[C@@H](Nc2ncncc2C(=O)c2cc3c(s2)CCC32OCCc3ccc(Cl)cc32)C[C@@H]1O (stereo partly shown) [Compound 168]
3. NS(=O)(=O)OC[C@H]1[C@H](F)[C@@H](Nc2ncncc2C(=O)c2cc3c(s2)CN(C2CC2)C[C@@]32OCCc3ccc(Cl)cc32)C[C@@H]1O [Compound 742]
4. NS(=O)(=O)OC[C@H]1[C@H](F)[C@@H](Nc2ncncc2C(=O)c2cc3c(s2)COC[C@]32NCCc3ccc(F)cc32)C[C@@H]1O [Compound 102]
5. NS(=O)(=O)OC[C@H]1[C@H](F)[C@@H](Nc2ncncc2C(=O)c2cc3c(s2)C=C[C@@]32OCCc3ccc(F)cc32)C[C@@H]1O [Compound 757]

≥ 7.30
≥ 7.30
< 6.70
6.70 to 7.30
< 6.70

Kindly state the measured pIC50 obtained for CN1Cc2sc(C(=O)c3cncnc3N[C@H]3C[C@H](O)[C@@H](COS(N)(=O)=O)[C@@H]3F)cc2[C@]2(C1)OCCc1ccc(Cl)cc12 [Compound 725] with SAE (Homo sapiens).
≥ 7.30
